- System: human ApoA-I promoter
- MEASUREMENT PROTOCOL: ApoA-I promoter induction in Caco-2 intestinal cells (pAI.474-Luc luciferase reporter)
- Format: cell-based
- REPORTED CONDITIONS: Caco-2 cells, 15 μM, 48 hours incubation, luciferase activity vs control samples
Counter-ions that a name gives are not always drawn.

[
  {
    "COMPOUND": "CC(=O)Oc1ccc(C2=CC(C)(C)c3ccccc3O2)cc1",
    "ApoA-I Promoter Induction": "increased"
  },
  {
    "COMPOUND": "Oc1ccc(-c2ccc3ccccc3c2)cc1",
    "ApoA-I Promoter Induction": "increased"
  },
  {
    "COMPOUND": "O=c1cc(-c2ccncc2)oc2ccccc12",
    "ApoA-I Promoter Induction": "increased"
  },
  {
    "COMPOUND": "N=C(N)NCCCC(N)C(=O)Oc1ccc(-c2cc(=O)c3ccccc3o2)cc1 (stereo not shown) [Example 76, trihydrochloride]",
    "ApoA-I Promoter Induction": "increased"
  },
  {
    "COMPOUND": "CC(=O)Oc1ccc(-c2cc(=O)c3ccccc3o2)cc1 [Example 72, 4-(4-oxo-4H-chromen-2-yl)phenyl acetate]",
    "ApoA-I Promoter Induction": "increased"
  },
  {
    "COMPOUND": "O=c1c(-c2ccc(O)cc2)coc2ncccc12",
    "ApoA-I Promoter Induction": "increased"
  },
  {
    "COMPOUND": "O=c1cc(-c2ccc(O)cc2)oc2cc(O)ccc12 [reference compound]",
    "ApoA-I Promoter Induction": "increased"
  },
  {
    "COMPOUND": "Cc1cc(-c2cc(=O)c3ccccc3o2)cc(C)c1O",
    "ApoA-I Promoter Induction": "increased"
  },
  {
    "COMPOUND": "O=c1cc(-c2ccc(O)nc2)oc2ccccc12 [Example 48, 2-(6-Hydroxypyridin-3-yl)-chromen-4-one]",
    "ApoA-I Promoter Induction": "no increase"
  },
  {
    "COMPOUND": "O=c1cc(-c2ccc(O)c(CO)c2)oc2ncccc12",
    "ApoA-I Promoter Induction": "increased"
  },
  {
    "COMPOUND": "O=c1cc(-c2ccc(O)cc2)oc2cc[n+]([O-])cc12",
    "ApoA-I Promoter Induction": "no increase"
  },
  {
    "COMPOUND": "O=c1cc(-c2ccc(O)cc2)oc2ccncc12",
    "ApoA-I Promoter Induction": "increased"
  },
  {
    "COMPOUND": "O=C(Oc1ccc(-c2cc(=O)c3ccccc3o2)cc1)c1cccnc1",
    "ApoA-I Promoter Induction": "increased"
  },
  {
    "COMPOUND": "Cn1c(-c2ccc(O)c(F)c2)cc2ncccc2c1=O",
    "ApoA-I Promoter Induction": "no increase"
  },
  {
    "COMPOUND": "Oc1ccc(/C=C/c2cc(O)cc(O)c2)cc1 [Resveratrol, resveratrol, reference compound]",
    "ApoA-I Promoter Induction": "increased"
  },
  {
    "COMPOUND": "CC(=O)Oc1ccc(C2=COc3ccccc3O2)cc1",
    "ApoA-I Promoter Induction": "increased"
  },
  {
    "COMPOUND": "COc1cccc2c(=O)cc(-c3ccc(O)cc3)oc12",
    "ApoA-I Promoter Induction": "increased"
  },
  {
    "COMPOUND": "O=c1cc(-c2ccc(O)cc2)[nH]c2cc(O)cc(O)c12",
    "ApoA-I Promoter Induction": "increased"
  },
  {
    "COMPOUND": "CC(=O)Oc1ccc(-c2cc(=O)c3cc(Br)cc([N+](=O)[O-])c3o2)cc1F",
    "ApoA-I Promoter Induction": "increased"
  },
  {
    "COMPOUND": "O=c1cc(-c2ccc(O)cc2)oc2c(O)cccc12",
    "ApoA-I Promoter Induction": "increased"
  },
  {
    "COMPOUND": "O=c1cc(-c2ccccc2)oc2ccccc12 [2-Phenyl-4H-chromen-4-one, 2-phenyl-4H-chromen-4-one, reference compound]",
    "ApoA-I Promoter Induction": "increased"
  },
  {
    "COMPOUND": "O=C1CC(c2ccc(O)cc2)Oc2cc(O)cc(O)c21 (stereo not shown)",
    "ApoA-I Promoter Induction": "increased"
  },
  {
    "COMPOUND": "O=c1cc(-c2ccc(O)cc2)oc2c[n+]([O-])ccc12",
    "ApoA-I Promoter Induction": "no increase"
  },
  {
    "COMPOUND": "O=c1cc(-c2ccc(O)c(F)c2)oc2ccc(CO)cc12",
    "ApoA-I Promoter Induction": "increased"
  },
  {
    "COMPOUND": "COc1ccc(-c2cc(=O)c3c(F)cc(F)cc3o2)cc1",
    "ApoA-I Promoter Induction": "no increase"
  },
  {
    "COMPOUND": "CC(=O)Oc1ccc(-c2cc(=O)c3cccnc3o2)cc1",
    "ApoA-I Promoter Induction": "increased"
  },
  {
    "COMPOUND": "O=c1cc(-c2ccccc2)oc2cccc(O)c12 [5-Hydroxy-2-phenyl-4H-chromen-4-one, 5-Hydroxy-2-phenyl-chromen-4-one, reference compound]",
    "ApoA-I Promoter Induction": "increased"
  },
  {
    "COMPOUND": "O=c1cc(-c2ccc([N+](=O)[O-])cc2)oc2ncccc12",
    "ApoA-I Promoter Induction": "no increase"
  },
  {
    "COMPOUND": "COCc1c(-c2ccc(O)cc2)oc2ccccc2c1=O",
    "ApoA-I Promoter Induction": "increased"
  },
  {
    "COMPOUND": "O=c1cc(-c2ccc(O)cc2)oc2cc(F)cc(F)c12",
    "ApoA-I Promoter Induction": "increased"
  },
  {
    "COMPOUND": "O=c1cc(-c2ccc(OCCO)cc2)oc2ncccc12",
    "ApoA-I Promoter Induction": "increased"
  },
  {
    "COMPOUND": "O=c1cc(-c2ccc(O)cc2)oc2cnccc12",
    "ApoA-I Promoter Induction": "increased"
  },
  {
    "COMPOUND": "O=c1cc(-c2ccc(O)cc2)oc2ncccc12",
    "ApoA-I Promoter Induction": "increased"
  },
  {
    "COMPOUND": "COc1cccc2c(=O)[nH]c(-c3ccc(O)c(F)c3)cc12",
    "ApoA-I Promoter Induction": "increased"
  },
  {
    "COMPOUND": "O=c1cc(-c2ccc(O)c(Br)c2)oc2ncccc12",
    "ApoA-I Promoter Induction": "increased"
  },
  {
    "COMPOUND": "O=c1cc(-c2ccc(O)cc2)[nH]c2ccccc12 [Example 51, 2-(4-Hydroxy-phenyl)-1H-quinolin-4-one]",
    "ApoA-I Promoter Induction": "no increase"
  },
  {
    "COMPOUND": "O=c1cc(-c2ccc(O)c(Br)c2)oc2ccccc12",
    "ApoA-I Promoter Induction": "increased"
  }
]
